Provenance of the data: patent US6429317B1

# Experimental Target: human m4 receptors (Homo sapiens)
# Construct: expressed in transfected cells; host or cells: CHO K1
# Measurement Notes: Cyclic AMP accumulation in pertussis toxin-treated CHO m4 cells
# Type: cell-based
# Details: stimulation of cyclic AMP production in CHO-m4 cells, forskolin present
Please provide measured % Maximum Stimulation Compared to Oxotremorine-M for the entries that follow.
Write the answer as a number in %, unit excluded.

Notebook: O=C(NC1c2cc(N=CN3CCCCC3)ccc2CC1O)c1cccc(Cl)c1Cl (stereo not shown) , % Maximum Stimulation Compared to Oxotremorine-M read as 52

The molecule listed as CN(C)C=Nc1ccc2c(c1)C(NC(=O)c1cc3ccccc3s1)C(O)C2 (stereo not shown) has a reported % Maximum Stimulation Compared to Oxotremorine-M of 14

# % Maximum Stimulation Compared to Oxotremorine-M (molecule: CN(C)C=Nc1ccc2c(c1)C(NC(=O)c1ccc3ccccc3c1)C(O)C2 (stereo not shown) ) is 13

Form: molecule = O=C(NC1c2cc(N=CN3CCCC3)ccc2CC1O)c1c(Cl)cccc1Cl (stereo not shown) ; % Maximum Stimulation Compared to Oxotremorine-M = 154

Field % Maximum Stimulation Compared to Oxotremorine-M (entry CN(C)C=Nc1ccc2c(c1)C(NS(=O)(=O)c1ccc(Cl)c(Cl)c1)C(O)C2 (stereo not shown) ) reads 4

Quick note, % Maximum Stimulation Compared to Oxotremorine-M for CN(C)C=Nc1ccc2c(c1)C(NC(=O)c1sccc1Cl)C(O)C2 (stereo not shown) landed at 0

The measured % Maximum Stimulation Compared to Oxotremorine-M associated with CN(C)C=Nc1ccc2c(c1)C(NC(=O)C(F)(F)F)C(O)C2 (stereo not shown) reads 0

Record CN(C)C=Nc1ccc2c(c1)C(NC(=O)c1ccc(Cl)nc1)C(O)C2 (stereo not shown) , field % Maximum Stimulation Compared to Oxotremorine-M: 8

The molecule CCc1ccc(C(=O)NC2c3cc(N=CN(C)C)ccc3CC2O)cc1 (stereo not shown) showed % Maximum Stimulation Compared to Oxotremorine-M equal to 7

% Maximum Stimulation Compared to Oxotremorine-M measured on O=C(NC1c2cc(N=CN3CCCCC3)ccc2CC1O)c1cc(F)cc(F)c1 (stereo not shown) = 73

So for CN(C)C=Nc1ccc2c(c1)C(NC(=O)c1cccnc1Cl)C(O)C2 (stereo not shown) , the logged % Maximum Stimulation Compared to Oxotremorine-M turned out to be 11

Recorded result, CN(C)C=Nc1ccc2c(c1)C(NC(=O)c1ccccc1)C(O)C2 (stereo not shown) , % Maximum Stimulation Compared to Oxotremorine-M: 5

For CN(C)C=Nc1ccc2c(c1)C(NC(=O)c1cccc(C#N)c1)C(O)C2 (stereo not shown) the molecule record lists % Maximum Stimulation Compared to Oxotremorine-M as 39

Notebook: CN(C)C=Nc1ccc2c(c1)C(NC(=O)c1cccc3ccccc13)C(O)C2 (stereo not shown) , % Maximum Stimulation Compared to Oxotremorine-M read as 95

Briefly, % Maximum Stimulation Compared to Oxotremorine-M measured for CC(=Nc1ccc2c(c1)C(NC(=O)c1ccc(Cl)c(Cl)c1)C(O)C2)N(C)C (stereo not shown) : 130

Query CN(C)C=Nc1ccc2c(c1)C(NC(=O)C1CCCC1)C(O)C2 (stereo not shown) yields % Maximum Stimulation Compared to Oxotremorine-M of 27

% Maximum Stimulation Compared to Oxotremorine-M reading for O=C(NC1c2cc(N=CN3CCCCC3)ccc2CC1O)c1ccc(Cl)c(Cl)c1 (stereo not shown) : 214

###

# Experimental Target: human m4 receptors (Homo sapiens, UniProt P08173)
# Construct: expressed in transfected cells; host or cells: CHO K1
# Sequence (P08173 whole entry): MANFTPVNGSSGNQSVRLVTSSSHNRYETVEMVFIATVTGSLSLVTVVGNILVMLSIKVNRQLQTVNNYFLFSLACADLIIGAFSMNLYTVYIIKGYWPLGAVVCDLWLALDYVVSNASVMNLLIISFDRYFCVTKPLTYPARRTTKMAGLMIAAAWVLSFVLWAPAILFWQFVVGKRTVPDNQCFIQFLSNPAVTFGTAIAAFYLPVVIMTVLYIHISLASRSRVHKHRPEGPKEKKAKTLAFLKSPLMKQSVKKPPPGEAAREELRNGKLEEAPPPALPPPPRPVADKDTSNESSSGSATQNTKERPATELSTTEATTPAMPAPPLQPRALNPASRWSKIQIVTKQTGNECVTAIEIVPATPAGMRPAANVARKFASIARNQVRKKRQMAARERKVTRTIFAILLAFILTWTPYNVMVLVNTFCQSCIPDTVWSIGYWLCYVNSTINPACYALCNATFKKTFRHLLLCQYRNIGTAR
# Measurement Notes: Cyclic AMP accumulation in pertussis toxin-treated CHO m4 cells
# Format: cell-based
# Details: stimulation of cyclic AMP production in CHO-m4 cells, forskolin present
# Experimental: Cyclic AMP Accumulation in Pertussis Toxin-Treated CHO m4 Cells. CHO K1 cells transfected with human m4 receptors were grown to near confluency in T-150 flasks using Dulbecco's Modified Eagle Medium (DMEM) containing 10% fetal bovine serum. Cells were detached with 0.05% trypsin, […], and were suspended in medium containing 100 ng/ml pertussis toxin. Cells were plated at 30,000 cells per well into 96 well plates. […]
So I've got a bunch of compounds here, and I need their % Maximum Stimulation Compared to Oxotremorine-M values.
Report as a plain number; the unit % is understood.

Measured % Maximum Stimulation Compared to Oxotremorine-M, CN(C)C=Nc1ccc2c(c1)C(NC(=O)c1cc(C(F)(F)F)cc(C(F)(F)F)c1)C(O)C2 (centres unmarked) : 100

get_value(item= CCCCOc1ccc(C(=O)NC2c3cc(N=CN(C)C)ccc3CC2O)cc1 (centres unmarked) , readout=% Maximum Stimulation Compared to Oxotremorine-M) returns 22

Lab book: % Maximum Stimulation Compared to Oxotremorine-M of CCCCc1ccc(C(=O)NC2c3cc(N=CN(C)C)ccc3CC2O)cc1 (centres unmarked) noted as 18

Notebook: CN(C)C=Nc1ccc2c(c1)C(NC(=O)c1cc(F)c(F)c(F)c1)C(O)C2 (centres unmarked) , % Maximum Stimulation Compared to Oxotremorine-M read as 30

Measured % Maximum Stimulation Compared to Oxotremorine-M, CN(C)C=Nc1ccc2c(c1)C(NC(=O)c1cc(F)cc(C(F)(F)F)c1)C(O)C2 (centres unmarked) : 52

// field: % Maximum Stimulation Compared to Oxotremorine-M; key: O=C(NC1c2cc(N=CN3CCCCC3)ccc2CC1O)c1cc(Cl)cc(Cl)c1 (centres unmarked) ; value = 36

Given item CN(C)C=Nc1ccc2c(c1)C(NC(=O)c1ccc(C(F)(F)F)cc1)C(O)C2 (centres unmarked) , the value recorded as its % Maximum Stimulation Compared to Oxotremorine-M is 6

// % Maximum Stimulation Compared to Oxotremorine-M value for CN(C)C=Nc1ccc2c(c1)C(NC(=O)c1cc(Cl)cc(Cl)c1)C(O)C2 (centres unmarked) : 74
